The reported numbers originate from ChEMBL document CHEMBL2396599.

Measurement Target: UniProt:Q7ZJM1
Experiment Description: Inhibition of wild type HIV-1 integrase 3' processing activity after 30 mins
Starred links: 1 amine or outer side, 2 acyl side, 3 side chain; linkers in the order of their positions; H or OH if unused. Positions of bridges follow the written chain, without caps; N, C: chain ends. Non-standard residues stand in square brackets, D forms with d. Residues, ends and D or L forms follow the SMILES beside them. αMeNva(5-ylidene) = C[C@@](CCC=[*:3])(N[*:1])C(=O)[*:2]; X3 = C=CCCCC[C@](C)(N[*:1])C(=O)[*:2]
Measurement Kind: pIC50
Units for pIC50: none; it is -log10 of a concentration expressed in mol/L.

Query: pIC50; subject: C=CCCCC[C@](C)(NC(=O)[C@H](CC(C)C)NC(=O)[C@H](CCCCN)NC(=O)[C@H](CC(C)C)NC(=O)[C@](C)(CCCCC=C)NC(=O)[C@H](Cc1ccccc1)NC(=O)[C@H](Cc1ccc(O)cc1)NC(=O)[C@H](C)NC(=O)[C@@H](N)[C@@H](C)O)C(=O)NCC(=O)N[C@@H](CCCNC(=N)N)C(=O)N[C@@H](Cc1c[nH]c2ccccc12)C(=O)O (H-TAYF[X3]LKL[X3]GRW-OH) 4.21

I have this compound here, CC(C)C[C@@H]1NC(=O)[C@H](CCCCN)NC(=O)[C@H](CC(C)C)NC(=O)[C@@](C)(NC(=O)[C@H](Cc2ccccc2)NC(=O)[C@H](Cc2ccc(O)cc2)NC(=O)[C@H](C)NC(=O)[C@@H](N)[C@@H](C)O)CC/C=C/CC[C@@](C)(C(=O)NCC(=O)N[C@@H](CCCNC(=N)N)C(=O)N[C@@H](Cc2c[nH]c3ccccc23)C(=O)O)NC1=O (H-TAYF[αMeNva(5-ylidene)]LKL[αMeNva(5-ylidene)]GRW-OH; staple (E) 5-9) , and I need its recorded pIC50. 4.05

====

Experiment Description: Therapeutic index, ratio of CC50 for human MT4 cells to EC50 for Human immunodeficiency virus 1
Assay type: cell-based
Recorded Conditions: read-out: Ratio CC50/EC50
Positions of bridges follow the written chain, without caps; N, C: chain ends. Non-standard residues stand in square brackets, D forms with d. Residues, ends and D or L forms follow the SMILES beside them. S5 = C=CCCC[C@](C)(N)C(=O)O
Tick fulfilled if selectivity ratio is 6 or greater. Tick not fulfilled if selectivity ratio is less than 6.

Answer whether selectivity ratio of CC(C)C[C@H](NC(=O)[C@H](CCCCN)NC(=O)[C@H](CC(C)C)NC(=O)[C@H](CC(C)C)NC(=O)[C@H](Cc1ccccc1)NC(=O)[C@H](Cc1ccc(O)cc1)NC(=O)[C@H](C)NC(=O)[C@@H](NC(=O)c1ccc2c(c1)C(=O)OC21c2ccc(O)cc2Oc2cc(O)ccc21)[C@@H](C)O)C(=O)N[C@@H](C)C(=O)NCC(=O)N[C@@H](CCCNC(=N)N)C(=O)N[C@@H](Cc1c[nH]c2ccccc12)C(=O)O (mixture of isomers) is greater than or equal to 6. not fulfilled

Check the entry CC[C@H](C)[C@@H]1NC(=O)[C@H](CC(C)C)NC(=O)[C@@](C)(NC(=O)[C@H](Cc2ccccc2)NC(=O)[C@H](Cc2ccc(O)cc2)NC(=O)[C@H](C)NC(=O)[C@@H](N)[C@@H](C)O)CCC/C=C\CCC[C@@](C)(C(=O)NCC(=O)N[C@@H](CCCNC(=N)N)C(=O)N[C@@H](Cc2c[nH]c3ccccc23)C(=O)O)NC(=O)[C@H](CC(C)C)NC1=O (H-TAYF[S5]LIL[S5]GRW-OH; staple (Z) 5-9) : does selectivity ratio equal or exceed 6? fulfilled

Hello, I need to know if CC(C)C[C@@H]1NC(=O)[C@H](CCCCN)NC(=O)[C@H](CC(C)C)NC(=O)[C@@](C)(NC(=O)[C@H](Cc2ccccc2)NC(=O)[C@H](Cc2ccc(O)cc2)NC(=O)[C@H](C)NC(=O)[C@@H](N)[C@@H](C)O)CCC/C=C\CCC[C@@](C)(C(=O)NCC(=O)N[C@@H](CCCNC(=N)N)C(=O)N[C@@H](Cc2c[nH]c3ccccc23)C(=O)O)NC1=O (H-TAYF[S5]LKL[S5]GRW-OH; staple (Z) 5-9) has measured selectivity ratio not below 6. Thanks! not fulfilled

Check if selectivity ratio >= 6 (inclusive). Item: CC(C)C[C@@H]1NC(=O)[C@H](CCCCN)NC(=O)[C@H](CC(C)C)NC(=O)[C@@](C)(NC(=O)[C@H](Cc2ccccc2)NC(=O)[C@H](Cc2ccc(O)cc2)NC(=O)[C@H](C)NC(=O)[C@@H](NC(=O)c2ccc3c(c2)C(=O)OC32c3ccc(O)cc3Oc3cc(O)ccc32)[C@@H](C)O)CCC/C=C\CCC[C@@](C)(C(=O)NCC(=O)N[C@@H](CCCNC(=N)N)C(=O)N[C@@H](Cc2c[nH]c3ccccc23)C(=O)O)NC1=O (mixture of isomers) fulfilled

Does C=CCCC[C@](C)(NC(=O)[C@H](CC(C)C)NC(=O)[C@@H](NC(=O)[C@H](CC(C)C)NC(=O)[C@](C)(CCCC=C)NC(=O)[C@H](Cc1ccccc1)NC(=O)[C@H](Cc1ccc(O)cc1)NC(=O)[C@H](C)NC(=O)[C@@H](N)[C@@H](C)O)[C@@H](C)CC)C(=O)NCC(=O)N[C@@H](CCCNC(=N)N)C(=O)N[C@@H](Cc1c[nH]c2ccccc12)C(=O)O (H-TAYF[S5]LIL[S5]GRW-OH) have a reported selectivity ratio of at least 6? not fulfilled

====

Measurement Target: Human immunodeficiency virus type 1 integrase (Human immunodeficiency virus 1, UniProt Q7ZJM1)
Sequence (Q7ZJM1 whole entry): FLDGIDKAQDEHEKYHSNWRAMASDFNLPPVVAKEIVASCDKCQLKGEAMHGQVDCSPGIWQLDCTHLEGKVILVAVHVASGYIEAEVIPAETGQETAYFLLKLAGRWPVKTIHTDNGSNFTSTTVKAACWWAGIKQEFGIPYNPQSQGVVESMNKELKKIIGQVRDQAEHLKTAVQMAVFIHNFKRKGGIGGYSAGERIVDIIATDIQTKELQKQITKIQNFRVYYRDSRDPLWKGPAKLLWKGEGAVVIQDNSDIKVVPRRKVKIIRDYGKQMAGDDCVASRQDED
Experiment Description: Inhibition of wild type HIV-1 integrase strand transfer activity after 30 mins
pIC50: −log10 of the molar value. Starred links: 1 amine or outer side, 2 acyl side, 3 side chain; linkers in the order of their positions; H or OH if unused. Non-standard residues stand in square brackets, D forms with d. Residues, ends and D or L forms follow the SMILES beside them. X3 = C=CCCCC[C@](C)(N[*:1])C(=O)[*:2]; X2 = C=CC[C@](C)(N[*:1])C(=O)[*:2]; S5 = C=CCCC[C@](C)(N)C(=O)O
Exercise: for every item that follows, state its recorded pIC50.

Can you share its pIC50? I mean this compound: C=CC[C@](C)(NC(=O)[C@H](CC(C)C)NC(=O)[C@H](CCCCN)NC(=O)[C@H](CC(C)C)NC(=O)[C@](C)(CC=C)NC(=O)[C@H](Cc1ccccc1)NC(=O)[C@H](Cc1ccc(O)cc1)NC(=O)[C@H](C)NC(=O)[C@@H](N)[C@@H](C)O)C(=O)NCC(=O)N[C@@H](CCCNC(=N)N)C(=O)N[C@@H](Cc1c[nH]c2ccccc12)C(=O)O (H-TAYF[X2]LKL[X2]GRW-OH) < 3.95

Could you tell me which pIC50 is on file for C=CCCCC[C@](C)(NC(=O)[C@H](CC(C)C)NC(=O)[C@H](CCCCN)NC(=O)[C@H](CC(C)C)NC(=O)[C@](C)(CCCCC=C)NC(=O)[C@H](Cc1ccccc1)NC(=O)[C@H](Cc1ccc(O)cc1)NC(=O)[C@H](C)NC(=O)[C@@H](N)[C@@H](C)O)C(=O)NCC(=O)N[C@@H](CCCNC(=N)N)C(=O)N[C@@H](Cc1c[nH]c2ccccc12)C(=O)O (H-TAYF[X3]LKL[X3]GRW-OH) ? 4.37

So what does the record say about pIC50 for C=CCCC[C@](C)(NC(=O)CNC(=O)[C@H](C)NC(=O)[C@H](CC(C)C)NC(=O)[C@](C)(CCCC=C)NC(=O)[C@H](CC(C)C)NC(=O)[C@H](CC(C)C)NC(=O)[C@H](Cc1ccccc1)NC(=O)[C@H](Cc1ccc(O)cc1)NC(=O)[C@H](C)NC(=O)[C@@H](N)[C@@H](C)O)C(=O)N[C@@H](Cc1c[nH]c2ccccc12)C(=O)O (H-TAYFLL[S5]LAG[S5]W-OH) ? < 4.00

====

Measurement Target: Human immunodeficiency virus type 1 integrase (Human immunodeficiency virus 1, UniProt Q7ZJM1)
Experiment Description: Inhibition of wild type HIV-1 integrase 3' processing activity after 30 mins
Positions of bridges follow the written chain, without caps; N, C: chain ends. Non-standard residues stand in square brackets, D forms with d. Residues, ends and D or L forms follow the SMILES beside them. S5 = C=CCCC[C@](C)(N)C(=O)O
So I've got a bunch of compounds here, and I need their pIC50 values.
Convention used: pIC50 is expressed as -log10 of the molar concentration.

So what's the measured pIC50 for this one? CC(C)C[C@H](NC(=O)[C@H](CCCCN)NC(=O)[C@H](CC(C)C)NC(=O)[C@]1(C)CCC/C=C\CCC[C@](C)(N)C(=O)N[C@@H](C)C(=O)N[C@@H](Cc2ccc(O)cc2)C(=O)N[C@@H](Cc2ccccc2)C(=O)N1)C(=O)N[C@@H](C)C(=O)NCC(=O)N[C@@H](CCCNC(=N)N)C(=O)N[C@@H](Cc1c[nH]c2ccccc12)C(=O)O (H-[S5]AYF[S5]LKLAGRW-OH; staple (Z) 1-5) 4.28

I would be grateful if you could share the reported pIC50 for CC(C)C[C@H](NC(=O)[C@H](CCCCN)NC(=O)[C@H](CC(C)C)NC(=O)[C@H](CC(C)C)NC(=O)[C@H](Cc1ccccc1)NC(=O)[C@H](Cc1ccc(O)cc1)NC(=O)[C@H](C)NC(=O)[C@@H](NC(=O)c1ccc2c(c1)C(=O)OC21c2ccc(O)cc2Oc2cc(O)ccc21)[C@@H](C)O)C(=O)N[C@@H](C)C(=O)NCC(=O)N[C@@H](CCCNC(=N)N)C(=O)N[C@@H](Cc1c[nH]c2ccccc12)C(=O)O (mixture of isomers) . 4.76
